system: DU-145; details: DU-145, 10 μM
endpointLabel: GI %

{"structureNotation": "CCCn1cc(C=NN=C2C(=O)Nc3ccc(C)cc32)c2ccccc21", "testedSystem": "DU-145", "GI %": "34%"}

With those in mind, consider the next compound.
Quick one: GI % for "CCCn1cc(/C=N/N=C2\C(=O)Nc3ccc(OC(F)(F)F)cc32)c2ccccc21" ?
13%

====

system: SK-MEL-5; details: human, 48 h
endpointLabel: CC50 (µM)
Please reply with the bare figure in µM and do not write the unit itself.

// returns reported CC50 for input CCCn1cc(C=NN=C2C(=O)Nc3ccc(C)cc32)c2ccccc21 [Compound 8a]
39

====

Overview of recorded GI % for various compounds
test system: RPMI-8226; details: RPMI-8226, 10 μM
Use % as the unit, but write only the number.

Study these solved cases before continuing.
{"compound": "CCCn1cc(C=NN=C2C(=O)Nc3ccc(C)cc32)c2ccccc21", "GI % [%]": 125}
{"compound": "CCCn1cc(/C=N/N=C2\\C(=O)Nc3ccc(OC(F)(F)F)cc32)c2ccccc21", "GI % [%]": 30}

Pending compound:
Report GI % for C=CCn1cc(C=NN=C2C(=O)Nc3ccccc32)c2ccccc21 [Compound 10a] please.
13

====

tested on: SK-MEL-28; conditions: SK-MEL-28, 10 μM
endpointLabel: GI %

Fill in the recorded GI % for this molecule, with SK-MEL-28 as test system: "CCCn1cc(C=NN=C2C(=O)Nc3ccc(C)cc32)c2ccccc21"
41%

====

tested on: MDA-MB-435; test: NCI SRB screening; format: cell-based; details: MDA-MB-435, 10 μM
endpointLabel: GI %

Can you look up the measured GI % of "CCCn1cc(C=NN=C2C(=O)Nc3ccc(C)cc32)c2ccccc21" for me?
127%

====

Measured GI % by item
system: NCI/ADR-RES; conditions: 10 μM

{"structureNotation": "CCCn1cc(/C=N/N=C2\\C(=O)Nc3ccc(OC(F)(F)F)cc32)c2ccccc21", "endpointLabel": "GI %", "assayValue": "15%"}

Kindly review the next molecule as well.
Request body: readout GI %, system NCI/ADR-RES, query "CCCn1cc(C=NN=C2C(=O)Nc3ccc(C)cc32)c2ccccc21" . Return the value.
24%

====

GI %: recorded values
test system: MCF7; settings: MCF7, 10 μM
Include the unit after the number when you answer.

Consider the reported GI % for these compounds:
{"compound": "C=CCn1cc(C=NN=C2C(=O)Nc3ccccc32)c2ccccc21 [Compound 10a]", "endpointLabel": "GI %", "assayValue": "33%"}
{"compound": "CCCn1cc(C=NN=C2C(=O)Nc3ccc(C)cc32)c2ccccc21 [Compound 8a]", "endpointLabel": "GI %", "assayValue": "91%"}
{"compound": "C=CCn1cc(C=NN=C2C(=O)Nc3c(F)cccc32)c2ccccc21 [Compound 10c]", "endpointLabel": "GI %", "assayValue": "31%"}
{"compound": "C=CCn1cc(C=NN=C2C(=O)Nc3ccc(Cl)cc32)c2ccccc21 [Compound 10d]", "endpointLabel": "GI %", "assayValue": "18%"}

If you can, please state the reported GI % value of CCCn1cc(C=NN=C2C(=O)Nc3ccc([N+](=O)[O-])cc32)c2ccccc21 [Compound 8c] .
15%

Ok, now CCCn1cc(/C=N/N=C2\C(=O)Nc3ccc(OC(F)(F)F)cc32)c2ccccc21 [Compound 8b]
29%

Same again, this time with CC(C)n1cc(C=NN=C2C(=O)Nc3ccccc32)c2ccccc21 [Compound 9]
10%

====

tested on: U251; conditions: U251, 10 μM
endpointLabel: GI % (%)
Use % as the unit, but write only the number.

{"compound": "CCCn1cc(/C=N/N=C2\\C(=O)Nc3ccc(OC(F)(F)F)cc32)c2ccccc21", "endpointLabel": "GI %", "scaleUnit": "%", "assayValue": 13.32}
{"compound": "C=CCn1cc(C=NN=C2C(=O)Nc3ccccc32)c2ccccc21 [Compound 10a]", "endpointLabel": "GI %", "scaleUnit": "%", "assayValue": 10}
{"compound": "CCCn1cc(C=NN=C2C(=O)Nc3ccc([N+](=O)[O-])cc32)c2ccccc21", "endpointLabel": "GI %", "scaleUnit": "%", "assayValue": 28}

What GI % value was documented for this compound, "CCCn1cc(C=NN=C2C(=O)Nc3ccc(C)cc32)c2ccccc21" ?
60

====

system: 786-0; conditions: 786-0, 10 μM
endpointLabel: GI %

What measured GI % is associated with "CCCn1cc(C=NN=C2C(=O)Nc3ccc(C)cc32)c2ccccc21" on 786-0?
36%

====

test system: OVCAR-3; details: OVCAR-3, 10 μM
Catalogue of molecules with associated GI %
Note: unit % is implicit; provide only the numeric part.

{"molecule": "C=CCn1cc(C=NN=C2C(=O)Nc3c(F)cccc32)c2ccccc21 [Compound 10c]", "scaleUnit": "%", "GI %": 13}

What GI % value was documented for this molecule, "CCCn1cc(C=NN=C2C(=O)Nc3ccc(C)cc32)c2ccccc21" ?
98

How about C=CCn1cc(C=NN=C2C(=O)Nc3ccccc32)c2ccccc21 [Compound 10a] ?
21

====

test system: HCT-116; details: human, 48 h
endpointLabel: CC50 (µM)
Numeric answer only, unit µM assumed.

Suppose we examine the molecule CCCn1cc(C=NN=C2C(=O)Nc3ccc(C)cc32)c2ccccc21 [Compound 8a] ; what CC50 value has been reported?
9.96

====

test system: M14; experiment: NCI SRB screening; type: cell-based; conditions: M14, 10 μM
Below is a list of entries, each paired with its recorded GI % value.

{"compound": "CCCn1cc(C=NN=C2C(=O)Nc3ccc(C)cc32)c2ccccc21 [Compound 8a]", "assayValue": "44%"}

Okay, next one:
Quick one: GI % of C=CCn1cc(C=NN=C2C(=O)Nc3ccccc32)c2ccccc21 [Compound 10a] ?
12%

====

target: UniProtKB P24941; test: CDK2 inhibition assay; type: biochemical; settings: CDK2, mean ± SE of three
endpointLabel: IC50
Please append the unit to your numeric answer.

I'm curious: which IC50 was measured for "CCCn1cc(C=NN=C2C(=O)Nc3ccc(C)cc32)c2ccccc21" tested on UniProtKB P24941?
850 nM

====

system: ACHN; conditions: 10 μM
endpointLabel: GI % (%)
Write the answer as a number in %, unit excluded.

Examples with their reported GI % follow.
{"molecule": "CCCn1cc(C=NN=C2C(=O)Nc3ccc(C)cc32)c2ccccc21", "GI %, %": 45}
{"molecule": "C=CCn1cc(C=NN=C2C(=O)Nc3c(F)cccc32)c2ccccc21 [Compound 10c]", "GI %, %": 11}

Let us move to another entry and its GI %.
Data request, read-out GI %, for "CCCn1cc(/C=N/N=C2\C(=O)Nc3ccc(OC(F)(F)F)cc32)c2ccccc21"
15

====

biological target: Bcl-2 (Homo sapiens, UniProt P10415)
Sequence (P10415 whole entry): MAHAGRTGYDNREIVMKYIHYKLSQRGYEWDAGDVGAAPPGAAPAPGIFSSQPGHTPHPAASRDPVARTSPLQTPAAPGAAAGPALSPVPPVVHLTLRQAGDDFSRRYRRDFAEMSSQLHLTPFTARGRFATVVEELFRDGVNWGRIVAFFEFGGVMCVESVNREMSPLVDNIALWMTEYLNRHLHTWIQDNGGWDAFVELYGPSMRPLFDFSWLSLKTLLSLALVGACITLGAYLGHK
endpointLabel: IC50 (nM)
Return type: number; implicit unit nM.

Entry "CCCn1cc(C=NN=C2C(=O)Nc3ccc(C)cc32)c2ccccc21" : reported IC50 = ?
460

====

system: HCT-15; settings: HCT-15, 10 μM
Recorded measurements of GI %, one per entry
Lab book: enter the figure in %, no units written.

Use the examples below as a reference point.
{"molecule": "C=CCn1cc(C=NN=C2C(=O)Nc3c(F)cccc32)c2ccccc21 [Compound 10c]", "scaleUnit": "%", "GI %": 22}
{"molecule": "CCCn1cc(/C=N/N=C2\\C(=O)Nc3ccc(OC(F)(F)F)cc32)c2ccccc21", "scaleUnit": "%", "GI %": 23}
{"molecule": "C=CCn1cc(C=NN=C2C(=O)Nc3ccc(Cl)cc32)c2ccccc21 [Compound 10d]", "scaleUnit": "%", "GI %": 10}
{"molecule": "C=CCn1cc(C=NN=C2C(=O)Nc3ccccc32)c2ccccc21 [Compound 10a]", "scaleUnit": "%", "GI %": 15}

Then this molecule:
Given "CCCn1cc(C=NN=C2C(=O)Nc3ccc(C)cc32)c2ccccc21" , state its recorded GI %.
77

====

system: IGROV1; conditions: IGROV1, 10 μM
Collected GI % values appear next to each entry.
Write the answer as a number in %, unit excluded.

{"compound": "C=CCn1cc(C=NN=C2C(=O)Nc3ccc(Cl)cc32)c2ccccc21 [Compound 10d]", "testedSystem": "IGROV1", "GI %, %": 23}

// returns reported GI % for input "CCCn1cc(C=NN=C2C(=O)Nc3ccc(C)cc32)c2ccccc21"
61

Same thing, different compound: C=CCn1cc(C=NN=C2C(=O)Nc3c(F)cccc32)c2ccccc21 [Compound 10c]
31

Repeat with C=CCn1cc(C=NN=C2C(=O)Nc3ccccc32)c2ccccc21 [Compound 10a]
28
